# System: 362531-283-R-J2-PDC complex spheroid viability;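 also: spheroids exposed to the agents for 7 days before readout; luminescence viability as percent of DMSO vehicle control wells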
# assay-method-text: Anticancer human tumor 362531-283-R-J2-PDC patient-derived colon adenocarcinoma cell line growth inhibition [RAS]
# stated-conditions: second compound 0.0316 µM; first compound 0.1 µM; active compounds read low
Items are presented alongside their recorded viability, T/C.
Expressed in %, but write only the number.

CC(Nc1ccc2c(c1)OCCn1cc(N3C(=O)OCC3C(F)F)nc1-2)C(N)=O (stereo not given) + C=CC(=O)N1CCN(c2nc(OCC3CCCN3C)nc3c(F)c(-c4nc(N)cc(C)c4C(F)(F)F)c(Cl)cc23)C(C)C1 ... 84.4

Inquiry: Consider the compound Nc1ccn(C2OC(CO)C(O)C2(F)F)c(=O)n1 (stereo not given) + C#Cc1c(F)ccc2cc(O)cc(-c3ncc4c(N5CC6CCC(C5)N6)nc(OCC56CCCN5CC(F)C6)nc4c3F)c12 and give its measured viability, T/C.
Reply text: 72.6

Inquiry: Consider the compound CC(C)n1nc(-c2ccc3oc(N)nc3c2)c2c(N)ncnc21 + C=CC(=O)N1CCN(c2nc(OCC3CCCN3C)nc3c(F)c(-c4nc(N)cc(C)c4C(F)(F)F)c(Cl)cc23)C(C)C1 and give its measured viability, T/C.
Reply text: 101

Inquiry: Consider the compound CC(C)n1nc(-c2ccc3oc(N)nc3c2)c2c(N)ncnc21 + C#Cc1c(F)ccc2cc(O)cc(-c3ncc4c(N5CC6CCC(C5)N6)nc(OCC56CCCN5CC(F)C6)nc4c3F)c12 and give its measured viability, T/C.
Reply text: 53.2

Inquiry: Consider the compound C=CC(=O)Nc1cc(Nc2nccc(-c3cn(C)c4ccccc34)n2)c(OC)cc1N(C)CCN(C)C + C=CC(=O)N1CCN(c2nc(OCC3CCCN3C)nc3c(F)c(-c4nc(N)cc(C)c4C(F)(F)F)c(Cl)cc23)C(C)C1 and give its measured viability, T/C.
Reply text: 94.9

Inquiry: Consider the compound O=C(c1ccc(F)c(F)c1Nc1ccc(I)cc1F)N1CC(O)([C@@H]2CCCCN2)C1 + C#Cc1c(F)ccc2cc(O)cc(-c3ncc4c(N5CC6CCC(C5)N6)nc(OCC56CCCN5CC(F)C6)nc4c3F)c12 and give its measured viability, T/C.
Reply text: 88.1

Inquiry: Consider the compound CCN1CCN(Cc2ccc(Nc3ncc(F)c(-c4cc(F)c5nc(C)n(C(C)C)c5c4)n3)nc2)CC1 + C#Cc1c(F)ccc2cc(O)cc(-c3ncc4c(N5CC6CCC(C5)N6)nc(OCC56CCCN5CC(F)C6)nc4c3F)c12 and give its measured viability, T/C.
Reply text: 70.3

Inquiry: Consider the compound CC1(O)CCCC1n1c(=O)c(C(F)F)cc2cnc(NC3CCN(S(C)(=O)=O)CC3)nc21 (stereo not given) + C#Cc1c(F)ccc2cc(O)cc(-c3ncc4c(N5CC6CCC(C5)N6)nc(OCC56CCCN5CC(F)C6)nc4c3F)c12 and give its measured viability, T/C.
Reply text: 91.8

Inquiry: Consider the compound NC1c2ccccc2OC12CCN(c1cnc3c(N4CCCc5ncccc54)n[nH]c3n1)CC2 (stereo not given) + C=CC(=O)N1CCN(c2nc(OCC3CCCN3C)nc3c(F)c(-c4nc(N)cc(C)c4C(F)(F)F)c(Cl)cc23)C(C)C1 and give its measured viability, T/C.
Reply text: 86.7

Inquiry: Consider the compound C=CC(=O)N1CCN(c2nc(OCC3CCCN3C)nc3c(F)c(-c4nc(N)cc(C)c4C(F)(F)F)c(Cl)cc23)C(C)C1 (stereo not given) + C#Cc1c(F)ccc2cc(O)cc(-c3ncc4c(N5CC6CCC(C5)N6)nc(OCC56CCCN5CC(F)C6)nc4c3F)c12 and give its measured viability, T/C.
Reply text: 98.4

The reported numbers originate from PubChem BioAssay AID2060909.
